test target: UniProt:P08235
Sequence (P08235 whole entry): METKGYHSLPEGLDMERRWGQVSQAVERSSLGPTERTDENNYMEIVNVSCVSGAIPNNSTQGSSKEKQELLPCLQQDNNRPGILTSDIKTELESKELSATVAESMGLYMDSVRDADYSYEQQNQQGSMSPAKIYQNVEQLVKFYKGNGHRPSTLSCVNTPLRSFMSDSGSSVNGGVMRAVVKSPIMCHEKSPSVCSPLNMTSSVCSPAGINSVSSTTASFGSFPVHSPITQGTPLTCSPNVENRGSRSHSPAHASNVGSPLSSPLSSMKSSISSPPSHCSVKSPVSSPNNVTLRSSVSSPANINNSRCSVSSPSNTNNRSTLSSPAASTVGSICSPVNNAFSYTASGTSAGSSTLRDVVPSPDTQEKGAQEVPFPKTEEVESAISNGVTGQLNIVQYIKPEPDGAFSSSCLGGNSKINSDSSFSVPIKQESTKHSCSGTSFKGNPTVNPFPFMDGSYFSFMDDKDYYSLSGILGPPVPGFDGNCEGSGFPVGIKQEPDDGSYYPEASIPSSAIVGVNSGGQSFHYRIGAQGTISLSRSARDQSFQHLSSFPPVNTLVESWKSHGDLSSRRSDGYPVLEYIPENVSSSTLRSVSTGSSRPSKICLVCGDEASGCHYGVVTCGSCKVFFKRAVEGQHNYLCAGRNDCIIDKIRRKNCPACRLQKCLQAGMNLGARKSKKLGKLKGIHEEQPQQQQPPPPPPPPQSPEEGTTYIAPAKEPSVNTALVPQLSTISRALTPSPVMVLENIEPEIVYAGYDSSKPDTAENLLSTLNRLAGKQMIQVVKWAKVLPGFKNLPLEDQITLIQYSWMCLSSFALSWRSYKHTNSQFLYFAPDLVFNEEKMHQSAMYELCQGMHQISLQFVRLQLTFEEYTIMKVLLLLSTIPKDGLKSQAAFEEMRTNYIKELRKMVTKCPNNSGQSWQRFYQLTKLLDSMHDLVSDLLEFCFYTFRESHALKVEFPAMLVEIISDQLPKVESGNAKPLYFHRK
test protocol: In vitro antagonistic activity against human mineralocorticoid receptor (hMR)
Format: functional
quantity kind: pIC50
pIC50 field: float, defined as -log10 of concentration (mol/L).

Data point: CC[C@@H]1c2cc3c(C(F)(F)F)cc(=O)oc3cc2NC[C@H]1C (relative stereo) ; pIC50 = 5.52

Data point: CC[C@H]1c2cc3c(C(F)(F)F)cc(=O)oc3cc2NC[C@H]1C (relative stereo) ; pIC50 = 5.55

Data point: CC1(C)CCc2cc3c(C(F)(F)F)cc(=O)oc3cc2N1 ; pIC50 = 5.82

Data point: CC[C@@H]1CNc2cc3oc(=O)cc(C(F)(F)F)c3cc2[C@H]1CC (stereo in doubt) ; pIC50 = 5.72

FYI, the data here is from ChEMBL document CHEMBL1132082.
